Please go through the items and note down their inhibition at 100 µM.
- Tested System: HIV-1 protease (Human immunodeficiency virus type 1 group M subtype B, UniProt P04585)
- Construct: The protease (or proteinase), consisting of only 99 amino acids, is among the smallest enzymes known
- Experimental Details: In vitro HIV protease inhibitory assay (HIV Protease FITC Assay)
- Assay type: biochemical
- Condition Context: read-out: HIV-1 Protease % Inhib
Where a name gives a salt, the structure may show the parent alone.
Use % as the unit, but write only the number.

Supply measured inhibition at 100 µM of CCCC1(c2ccccc2)CC(O)=C(C(CC)c2ccccc2)C(=O)O1 (stereo not shown) [Example 32] in your reply.
93.1

Supply measured inhibition at 100 µM of CCC(C1=C(O)CC2(CCCCC2)OC1=O)c1ccccc1 (stereo not shown) [Example 33, sodium salt] in your reply.
80.7

Supply measured inhibition at 100 µM of CCC(C1=C(O)CC(c2ccccc2)(C2CCCCC2)OC1=O)c1cccc(O)c1 (stereo not shown) [Example 31] in your reply.
86

Supply measured inhibition at 100 µM of CCC(c1ccccc1)C1C(=O)CC(CC)(c2ccccc2)OC1=O (stereo not shown) [Example 26] in your reply.
86.3

---

- Tested System: HIV-1 protease (Human immunodeficiency virus type 1 group M subtype B, UniProt P04585)
- Construct: The protease (or proteinase), consisting of only 99 amino acids, is among the smallest enzymes known
- Experimental Details: In vitro HIV protease inhibitory assay (HIV Protease FITC Assay)
- Format: biochemical
- Condition Context: read-out: HIV-1 Protease % Inhib
Structures can show the parent of a compound that is named as a salt.
Please go through the items and note down their inhibition at 1 µM.
Use % as the unit, but write only the number.

Supply measured inhibition at 1 µM of CCC(C1=C(O)CC2(CCCCC2)OC1=O)c1ccccc1 (stereo not shown) [Example 33, sodium salt] in your reply.
10.2

Supply measured inhibition at 1 µM of CCC(C1=C(O)CC(c2ccccc2)(C2CCCCC2)OC1=O)c1cccc(O)c1 (stereo not shown) in your reply.
18.7

Supply measured inhibition at 1 µM of CCCC1(c2ccccc2)CC(O)=C(C(CC)c2ccccc2)C(=O)O1 (stereo not shown) in your reply.
56.1

Supply measured inhibition at 1 µM of CCC(c1ccccc1)C1C(=O)CC(CC)(c2ccccc2)OC1=O (stereo not shown) in your reply.
38.7

---

Please go through the items and note down their inhibition at 3.3 µM.
- Tested System: HIV-1 protease (Human immunodeficiency virus type 1 group M subtype B, UniProt P04585)
- Construct: The protease (or proteinase), consisting of only 99 amino acids, is among the smallest enzymes known
- Experimental Details: In vitro HIV protease inhibitory assay (HIV Protease FITC Assay)
- Format: biochemical
- Condition Context: read-out: HIV-1 Protease % Inhib
Use % as the unit, but write only the number.

Supply measured inhibition at 3.3 µM of CCCC1(CCc2ccccc2)CC(O)=C(C(CC)c2ccccc2)C(=O)O1 (stereo not drawn) in your reply.
99.3

Supply measured inhibition at 3.3 µM of C=CC(C1=C(O)CC2(CCCCC2Cc2ccccc2)OC1=O)c1ccccc1 (stereo not drawn) in your reply.
67.1

Supply measured inhibition at 3.3 µM of CCCC1(CCc2ccccc2)CC(O)=C(C(/C=C/c2ccccc2)c2ccccc2)C(=O)O1 (stereo not drawn) in your reply.
86.7

Supply measured inhibition at 3.3 µM of CCCC1(CCc2ccccc2)CC(O)=C(C(CCc2ccccc2)c2ccccc2)C(=O)O1 (stereo not drawn) in your reply.
82.2

Supply measured inhibition at 3.3 µM of CCC(Cc1ccccc1)c1cc(O)c(C(c2cccc(NC(=O)[C@H](Cc3c[nH]cn3)NC(=O)OC(C)(C)C)c2)C2CC2)c(=O)o1 (stereo partly drawn) in your reply.
104

Supply measured inhibition at 3.3 µM of CCC(Cc1ccccc1)c1cc(O)c(C(c2cccc(NS(=O)(=O)c3ccc(Cl)cc3)c2)C2CC2)c(=O)o1 (stereo not drawn) in your reply.
97.1

Supply measured inhibition at 3.3 µM of CCC(C1=C(O)CC2(CCCCCCC2)OC1=O)c1ccccc1 (stereo not drawn) in your reply.
42.9

Supply measured inhibition at 3.3 µM of CCC(Cc1ccccc1)c1cc(O)c(C(c2cccc(NC(=O)Cc3ccncc3)c2)C2CC2)c(=O)o1 (stereo not drawn) in your reply.
88.5

---

- Tested System: HIV-1 protease (Human immunodeficiency virus type 1 group M subtype B)
- Construct: The protease (or proteinase), consisting of only 99 amino acids, is among the smallest enzymes known
- Experimental Details: In vitro HIV protease inhibitory assay (HIV Protease FITC Assay)
- Assay type: biochemical
- Condition Context: read-out: HIV-1 Protease % Inhib
Please go through the items and note down their inhibition at 0.123 µM.
Use % as the unit, but write only the number.

Supply measured inhibition at 0.123 µM of CCC(Cc1ccccc1)c1cc(O)c(C(c2cccc(NC(=O)[C@H](Cc3c[nH]cn3)NC(=O)OC(C)(C)C)c2)C2CC2)c(=O)o1 (stereo partly drawn) [Example 226] in your reply.
73.4

Supply measured inhibition at 0.123 µM of CCC(Cc1ccccc1)c1cc(O)c(C(c2cccc(NS(=O)(=O)c3ccc(Cl)cc3)c2)C2CC2)c(=O)o1 (stereo not drawn) [Example 224] in your reply.
46.9

Supply measured inhibition at 0.123 µM of CCCC1(CCc2ccccc2)CC(O)=C(C(CCc2ccccc2)c2ccccc2)C(=O)O1 (stereo not drawn) [Example 171] in your reply.
11.8

Supply measured inhibition at 0.123 µM of CCCC1(CCc2ccccc2)CC(O)=C(C(CC)c2ccccc2)C(=O)O1 (stereo not drawn) [Example 175] in your reply.
19.7

---

- Tested System: HIV-1 protease (Human immunodeficiency virus type 1 group M subtype B, UniProt P04585)
- Construct: The protease (or proteinase), consisting of only 99 amino acids, is among the smallest enzymes known
- Experimental Details: In vitro HIV protease inhibitory assay (HIV Protease FITC Assay)
- Format: biochemical
- Condition Context: read-out: HIV-1 Protease % Inhib
Please go through the items and note down their inhibition at 0.37 µM.
Use % as the unit, but write only the number.

State, for HIV-1 protease (Human immunodeficiency virus type 1 group M subtype B, UniProt P04585), measured inhibition at 0.37 µM of the compound listed here: CCCC1(CCc2ccccc2)CC(O)=C(C(/C=C/c2ccccc2)c2ccccc2)C(=O)O1 (centres unmarked) [Example 170]
29.6

State, for HIV-1 protease (Human immunodeficiency virus type 1 group M subtype B, UniProt P04585), measured inhibition at 0.37 µM of the compound listed here: CCCC1(CCc2ccccc2)CC(O)=C(C(CC)c2ccccc2)C(=O)O1 (centres unmarked) [Example 175]
46.7

State, for HIV-1 protease (Human immunodeficiency virus type 1 group M subtype B, UniProt P04585), measured inhibition at 0.37 µM of the compound listed here: CCC(Cc1ccccc1)c1cc(O)c(C(c2cccc(NS(=O)(=O)c3ccc(Cl)cc3)c2)C2CC2)c(=O)o1 (centres unmarked) [Example 224]
76.9

State, for HIV-1 protease (Human immunodeficiency virus type 1 group M subtype B, UniProt P04585), measured inhibition at 0.37 µM of the compound listed here: CCC(Cc1ccccc1)c1cc(O)c(C(c2cccc(NC(=O)Cc3ccncc3)c2)C2CC2)c(=O)o1 (centres unmarked) [Example 249]
40

---

- Tested System: HIV-1 protease (Human immunodeficiency virus type 1 group M subtype B, UniProt P04585)
- Construct: The protease (or proteinase), consisting of only 99 amino acids, is among the smallest enzymes known
- Experimental Details: In vitro HIV protease inhibitory assay (HIV Protease FITC Assay)
- Format: biochemical
- Condition Context: HIV-1 Dose 30.000 uM; read-out: HIV-1 Protease % Inhib
Please use Met whenever inhibition at 30 µM is not below 80%, and Not met whenever it is.

Decide: is the reported value of inhibition at 30 µM for CCCCC1(Cc2ccccc2)CC(O)=C(C(CC)c2ccccc2)C(=O)O1 (centres unmarked) equal to or greater than 80%?
Not met

Decide: is the reported value of inhibition at 30 µM for Cc1ccc(C(O)Cc2cc(O)c(C(c3ccccc3)C3CC3)c(=O)o2)cc1 (centres unmarked) equal to or greater than 80%?
Met

Decide: is the reported value of inhibition at 30 µM for CCC(c1cc(O)c(C(c2ccccc2)C2CC2)c(=O)o1)C(O)c1ccccc1 (centres unmarked) equal to or greater than 80%?
Met

Decide: is the reported value of inhibition at 30 µM for C=CC(C1=C(O)CC(Cc2ccccc2)(c2ccccc2)OC1=O)c1ccccc1 (centres unmarked) equal to or greater than 80%?
Not met

Decide: is the reported value of inhibition at 30 µM for CCS(=O)(=O)Nc1cccc(C(c2c(O)cc(C(CC3CC3)CC3CCCOC3)oc2=O)C2CC2)c1 (centres unmarked) equal to or greater than 80%?
Met

Decide: is the reported value of inhibition at 30 µM for CCC(C1=C(O)CC2(CCCC2)OC1=O)c1ccccc1 (centres unmarked) equal to or greater than 80%?
Not met
